These measurements were taken from patent US20240376198A1.

target: T1, cynomolgus NKp46 (cynomolgus monkey, UniProt Q95JB9 22-306); assay: flow cytometry, HEK293F cells transfected with cyno NKp46
T1 construct: also called cyno NKp46; cynomolgus monkey NKp46
T1 sequence (Q95JB9 22-306 limits assumed): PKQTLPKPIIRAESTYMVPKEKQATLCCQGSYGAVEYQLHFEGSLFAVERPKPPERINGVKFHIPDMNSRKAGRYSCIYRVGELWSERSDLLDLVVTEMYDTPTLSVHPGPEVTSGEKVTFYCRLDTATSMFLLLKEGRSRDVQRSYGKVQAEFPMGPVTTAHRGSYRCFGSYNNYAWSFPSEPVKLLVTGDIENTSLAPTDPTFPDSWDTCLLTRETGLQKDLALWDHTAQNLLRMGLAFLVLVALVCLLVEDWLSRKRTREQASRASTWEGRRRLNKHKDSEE
assay metric: Bmax (MFI)
Give your result in MFI as a bare value.

Recorded result, NKp46-hz5D7v13-Fc* (Fc fusion, VHH-Fc fusion with an IgG1 Fc lacking a hinge (Fc*)) EVQLVESGGGEVQPGGSLRLSCAASGRTFASAAMGWFRQAPGKEREFVAAISRSDDTYYAESVKGRFTISRDNAKNTVYLQMSSLRAEDTAVYYCAAVVPTYGNTIYVHSAAYNYWGQGTLVTVKPGGGGPSVFLFPPKPKDTLMISRTPEVTCVVVDVSHEDPEVKFNWYVDGVEVHNAKTKPREEQYNSTYRVVSVLTVLHQDWLNGKEYKCKVSNKALPAPIEKTISKAKGQPREPQVYTLPPSRDELTKNQVSLTCLVKGFYPSDIAVEWESNGQPENNYKTTPPVLDSDGSFFLYSKLTVDKSRWQQGNVFSCSVMHEALHNHYTQKSLSLSPG , Bmax (MFI): 18800
